Assay read-out IC50; system under study: purified human MMP-12 enzyme (Homo sapiens).
Answers are plain numbers, in nM.

[
  {
    "SMILES DATA": "CC(C)[C@H](NS(=O)(=O)c1ccc2c(c1)oc1cc(-c3nccs3)ccc12)C(=O)O",
    "IC50, nM": 11
  }
]

Below: the item to evaluate.
// recorded IC50 for Cc1cc(-c2ccc3oc4cc(S(=O)(=O)N[C@H](C(=O)O)C(C)C)ccc4c3c2)c(C)s1 : 2.5

====

Assay read-out pIC50; system under study: purified human MMP-12 enzyme (Homo sapiens, UniProt P39900).
Sequence (P39900 106-470): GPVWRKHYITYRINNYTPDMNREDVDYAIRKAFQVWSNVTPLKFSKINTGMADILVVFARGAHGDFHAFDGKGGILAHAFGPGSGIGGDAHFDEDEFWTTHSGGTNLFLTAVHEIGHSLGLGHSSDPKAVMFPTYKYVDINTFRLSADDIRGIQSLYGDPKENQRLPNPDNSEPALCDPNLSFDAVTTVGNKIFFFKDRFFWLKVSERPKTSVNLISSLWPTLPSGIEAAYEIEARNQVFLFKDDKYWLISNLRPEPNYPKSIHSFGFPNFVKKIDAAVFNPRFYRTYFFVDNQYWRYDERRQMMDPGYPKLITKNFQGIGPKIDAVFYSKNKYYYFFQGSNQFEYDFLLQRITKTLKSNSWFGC
One number for each entry, as −log10 of the molar value.

Working through the 8 compounds below one at a time, give pIC50 for each.
1. CC(C)(C)c1nc(-c2ccc3c(c2)oc2ccc(S(=O)(=O)N[C@@H](Cc4c[nH]c5ccccc45)C(=O)O)cc23)no1
2. CC(C)[C@H](NS(=O)(=O)c1ccc2c(c1)sc1ccc(-c3ccc(-c4ccc(-c5ccc(Cl)nc5)nc4)nc3)cc12)C(=O)O
3. CC(C)[C@H](NS(=O)(=O)c1ccc2c(c1)oc1cc(-c3nnn[nH]3)ccc12)C(=O)O
4. CCN(C#Cc1ccc2oc3cc(S(=O)(=O)N[C@H](C(=O)O)C(C)C)ccc3c2c1)CC
5. CC(C)(C)c1nc(-c2ccc3oc4cc(S(=O)(=O)N[C@@H](C(=O)O)c5ccccc5)ccc4c3c2)no1
6. CC(C)[C@@H](NS(=O)(=O)c1ccc2oc3cc(-c4nc5ccc(OC(F)(F)F)cc5s4)ccc3c2c1)C(=O)O
7. CC(C)[C@@H](NS(=O)(=O)c1ccc2oc3cc(-c4ccc(Cl)o4)ccc3c2c1)C(=O)O
8. O=C(O)CNS(=O)(=O)c1ccc2c(c1)oc1ccc(-c3nccs3)cc12

**A:**
[7.82, 6.32, 6.62, 7.41, 7.68, 7.11, 8.36, 7.77]

Working through the 6 compounds below one at a time, give pIC50 for each.
1. CC(C)[C@H](NS(=O)(=O)c1ccc2c(c1)sc1ccc(-c3ccc(Cl)nc3)cc12)C(=O)O
2. CC(C)[C@H](NS(=O)(=O)c1ccc2c(c1)oc1ccc(-c3occc3CN(C)C)cc12)C(=O)O
3. CC(C)[C@@H](NS(=O)(=O)c1ccc2oc3cc(-c4cccs4)ccc3c2c1)C(=O)O
4. CC(C)[C@H](NS(=O)(=O)c1ccc2c(c1)sc1ccc(-c3ccc(-c4ccc(Cl)nc4)nc3)cc12)C(=O)O
5. CCCc1ccc(-c2ccc3c(c2)oc2ccc(S(=O)(=O)N[C@@H](C(=O)O)C(C)C)cc23)s1
6. CC(C)[C@@H](NS(=O)(=O)c1ccc2oc3cc(-c4ccoc4)ccc3c2c1)C(=O)O

**A:**
1: 7.48; 2: 6.93; 3: 9.22; 4: 6.56; 5: 8.82; 6: 7.89

Working through the 5 compounds below one at a time, give pIC50 for each.
1. CC(C)(C)c1nc(-c2ccc3oc4cc(S(=O)(=O)N[C@H](C(=O)O)C(C)(C)C)ccc4c3c2)no1
2. CC(C)[C@@H](NS(=O)(=O)c1ccc2sc3cc(-c4ccco4)ccc3c2c1)C(=O)O
3. CC(C)[C@H](NS(=O)(=O)c1ccc2c(c1)oc1ccc(C(=N)N3CCCC3)cc12)C(=O)O
4. CC(C)[C@H](NS(=O)(=O)c1ccc2c(c1)sc1ccc(-c3ccoc3)cc12)C(=O)O
5. CC(C)[C@@H](NS(=O)(=O)c1ccc2oc3cc(-c4ccc(C(F)(F)F)cc4)ccc3c2c1)C(=O)O

**A:**
8.04
7.15
6.76
8.32
8.66

====

Biological target: purified human MMP-12 enzyme (Homo sapiens)
Test: MMP-12 FRET assay
Type: biochemical
Conditions: substrate 20 μM, room temperature
Experimental: Compounds according to the present teachings were tested in an MMP-12 FRET assay as follows. […] The reaction was monitored for 30 minutes at room temperature and the initial rate of the cleavage reaction was determined using a fluorescence plate reader (λex: 325 nm, λem: 395 nm). […]
QUANTITY MEASURED: IC50

Working through the 4 compounds below one at a time, give IC50 for each.
1. CC(C)[C@H](NS(=O)(=O)c1ccc2c(c1)oc1cc(-c3cnc(Cl)s3)ccc12)C(=O)O
2. CC(C)[C@H](NS(=O)(=O)c1ccc2c(c1)oc1cc(-c3sc(Cl)cc3Cl)ccc12)C(=O)O
3. CC(C)C[C@@H](NS(=O)(=O)c1ccc2oc3cc(-c4noc(C(C)(C)C)n4)ccc3c2c1)C(=O)O
4. COc1ccc2sc(-c3ccc4oc5cc(S(=O)(=O)N[C@H](C(=O)O)C(C)C)ccc5c4c3)nc2c1

**A:**
1. < 1.5 nM
2. < 1.5 nM
3. 7.2 nM
4. < 1.5 nM

====

Assay read-out IC50; system under study: purified human MMP-12 enzyme (Homo sapiens).

[
  {
    "SMILES DATA": "CC(C)[C@H](NS(=O)(=O)c1ccc2c(c1)oc1ccc(-c3noc(-c4ccc(C(F)(F)F)cc4)n3)cc12)C(=O)O",
    "TARGET UNDER TEST": "purified human MMP-12 enzyme (Homo sapiens)",
    "QUANTITY MEASURED": "IC50",
    "VALUE MEASURED": "3.7 nM"
  }
]

Working through the 6 compounds below one at a time, give IC50 for each.
1. CC(C)[C@H](NS(=O)(=O)c1ccc2c(c1)oc1ccc(-c3ccc(C(F)(F)F)s3)cc12)C(=O)O
2. CC(C)[C@H](NS(=O)(=O)c1ccc2c(c1)oc1ccc(-c3nc4ccc(Cl)cc4s3)cc12)C(=O)O
3. CC(C)[C@H](NS(=O)(=O)c1ccc2c(c1)oc1ccc(-c3cnn(Cc4ccccc4)c3)cc12)C(=O)O
4. CC(C)[C@@H](NS(=O)(=O)c1ccc2oc3cc(-c4ccsc4)ccc3c2c1)C(=O)O
5. COc1ccc(-c2ccc3oc4cc(S(=O)(=O)N[C@H](C(=O)O)C(C)C)ccc4c3c2)cn1
6. CC(C)[C@H](NS(=O)(=O)c1ccc2c(c1)oc1ccc(-c3noc(C4CCCC4)n3)cc12)C(=O)O

**A:**
1. < 1.5 nM
2. 4.1 nM
3. 3 nM
4. < 1.5 nM
5. < 1.5 nM
6. 2.5 nM

====

Molecular target: purified human MMP-12 enzyme (Homo sapiens, UniProt P39900)
IC50 less than 10 nM is true; IC50 greater than or equal to 10 nM is false.

**Q:** Find out if reported IC50 for CCNC(=N)c1ccc2oc3cc(S(=O)(=O)N[C@H](C(=O)O)C(C)C)ccc3c2c1 is less than 10 nM
**A:** false

**Q:** Find out if reported IC50 for CC(C)[C@H](NS(=O)(=O)c1ccc2c(c1)oc1ccc(-c3nc(Br)cs3)cc12)C(=O)O is less than 10 nM
**A:** true

**Q:** Find out if reported IC50 for CC(C)[C@H](NS(=O)(=O)c1ccc2c(c1)sc1ccc(-c3ccc[nH]3)cc12)C(=O)O is less than 10 nM
**A:** false

**Q:** Find out if reported IC50 for CC(C)[C@H](NS(=O)(=O)c1ccc2c(c1)sc1ccc(-c3cn[nH]c3)cc12)C(=O)O is less than 10 nM
**A:** true

**Q:** Find out if reported IC50 for Cc1nc(-c2ccc(C(F)(F)F)cc2)sc1-c1ccc2oc3cc(S(=O)(=O)N[C@H](C(=O)O)C(C)C)ccc3c2c1 is less than 10 nM
**A:** false

**Q:** Find out if reported IC50 for CCc1ccc(-c2cc(-c3ccc4c(c3)oc3cc(S(=O)(=O)N[C@H](C(=O)O)C(C)C)ccc34)sc2CC)s1 is less than 10 nM
**A:** false

**Q:** Find out if reported IC50 for CC(C)[C@@H](NS(=O)(=O)c1ccc2oc3cc(-c4ccc[nH]4)ccc3c2c1)C(=O)O is less than 10 nM
**A:** true

====

Assay read-out IC50; system under study: purified human MMP-12 enzyme (Homo sapiens).
One number for each entry, in nM.

# annotated cases, reported IC50 shown
[
  {
    "SMILES DATA": "CC(=O)c1ccc(-c2ccc3sc4cc(S(=O)(=O)N[C@H](C(=O)O)C(C)C)ccc4c3c2)s1",
    "UNIT INFO": "nM",
    "IC50": 2.9
  },
  {
    "SMILES DATA": "CC(C)[C@H](NS(=O)(=O)c1ccc2c(c1)oc1ccc(-c3ccc(-c4nnn[nH]4)s3)cc12)C(=O)O",
    "UNIT INFO": "nM",
    "IC50": 8.4
  }
]

Below: the item to evaluate.
// recorded IC50 for CC(C)[C@H](NS(=O)(=O)c1ccc2c(c1)oc1ccc(-c3ccc4oc5cc(S(=O)(=O)N[C@H](C(=O)O)C(C)C)ccc5c4c3)cc12)C(=O)O : 17
